Measured ERα (% of the control) mean ± S.D., listed per entry for reference.
tested on: ERα (Homo sapiens, UniProt P03372)
Construct: expressed in transfected cells; host or cells: Hela cells (ER expression free)
Sequence (P03372 whole entry): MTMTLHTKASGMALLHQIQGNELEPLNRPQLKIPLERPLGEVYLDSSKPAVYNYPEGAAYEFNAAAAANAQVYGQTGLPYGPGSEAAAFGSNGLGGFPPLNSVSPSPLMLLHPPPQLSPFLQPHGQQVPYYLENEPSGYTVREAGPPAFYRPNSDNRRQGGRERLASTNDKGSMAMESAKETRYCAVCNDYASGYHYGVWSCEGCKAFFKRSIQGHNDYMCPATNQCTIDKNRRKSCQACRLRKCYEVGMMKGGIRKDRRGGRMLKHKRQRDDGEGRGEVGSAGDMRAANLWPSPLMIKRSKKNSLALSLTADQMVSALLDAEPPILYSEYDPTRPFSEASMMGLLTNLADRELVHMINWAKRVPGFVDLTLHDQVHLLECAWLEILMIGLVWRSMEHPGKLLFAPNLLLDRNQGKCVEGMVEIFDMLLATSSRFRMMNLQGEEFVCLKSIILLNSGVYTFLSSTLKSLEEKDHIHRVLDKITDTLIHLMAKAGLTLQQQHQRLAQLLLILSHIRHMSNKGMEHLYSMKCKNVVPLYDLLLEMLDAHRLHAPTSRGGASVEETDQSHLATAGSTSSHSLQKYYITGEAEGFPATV
experiment: ERα luciferase reporter gene transcription activation in transfected Hela cells
Format: cell-based
condition notes: Hela cells, 10^−7 M, 24 h

Sample records with ERα (% of the control) mean ± S.D.:
{"compound": "Cc1cc(O)c2c(c1)C(=O)c1cc(O)cc(O)c1C2=O", "ERα (% of the control) mean ± S.D.": "109.96 ± 11.33 % of the control"}
{"compound": "O=C(O[C@@H]1Cc2c(O)cc(O)cc2O[C@@H]1c1ccc(O)c(O)c1)c1cc(O)c(O)c(O)c1 [(−)Epicatechin-3-O-gallate, (−)epicatechin-3-O-gallate]", "ERα (% of the control) mean ± S.D.": "200.50 ± 13.72 % of the control"}
{"compound": "Cc1cc(O)c2c(c1)C(=O)c1cccc(O)c1C2=O", "ERα (% of the control) mean ± S.D.": "97.77 ± 8.47 % of the control"}
{"compound": "O=C1C[C@@H](c2ccc(O[C@@H]3O[C@H](CO)[C@@H](O)[C@H](O)[C@H]3O)cc2)Oc2cc(O)cc(O)c21 [Naringenin-4′-O-glucoside, naringenin-4′-O-glucoside]", "ERα (% of the control) mean ± S.D.": "182.34 ± 5.97 % of the control"}

// next item, ERα (% of the control) mean ± S.D. requested
ERα (% of the control) mean ± S.D. for `O=C(CCc1ccc(O)cc1)c1c(O)cc(O)cc1O[C@@H]1O[C@H](CO)[C@@H](O)[C@H](O)[C@H]1O` ?
118.40 ± 4.20 % of the control

Data provenance is patent US20130288989A1.
